Target: GDP-bound KRAS wild-type protein (Homo sapiens, UniProt P01116)
Sequence (P01116 whole entry): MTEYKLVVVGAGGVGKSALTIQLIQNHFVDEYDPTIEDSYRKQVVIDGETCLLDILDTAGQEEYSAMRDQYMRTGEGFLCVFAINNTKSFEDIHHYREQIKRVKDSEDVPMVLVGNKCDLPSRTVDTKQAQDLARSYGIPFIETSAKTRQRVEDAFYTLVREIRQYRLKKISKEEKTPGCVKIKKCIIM
Test: Binding to KRAS by surface plasmon resonance (SPR), Single Cycle Kinetics
Conditions: SPR, Single Cycle Kinetics, GDP-bound KRAS wild-type protein; read-out: KRAS KD
PROPERTY MEASURED: Kd (nM)
Response body: numeric value in nM, unit text excluded.

| COMPOUND | Kd, nM |
| --- | --- |
| CCCO[C@@H]1C[C@H]2C(=O)NC3(CC(C)(C)C3)C(=O)N(C)[C@@H](C3CCCC3)C(=O)N(C)[C@H](C(=O)N(C)C)CC(=O)N(C)[C@H]3CCCCc4ccc(cc4)C[C@@H](C(=O)N(C)CC(=O)N[C@@H](CCc4ccc(C(F)(F)F)c(OC)c4)C(=O)N2C1)N1CC/C=C\C[C@@H](C1=O)N(C)C(=O)CN(C)C(=O)[C@H]([C@@H](C)CC)NC3=O [PP3077] | 0.04 |
| CCO[C@@H]1C[C@H]2C(=O)NC3(CC(C)(C)C3)C(=O)N(C)[C@@H](C(CC)CC)C(=O)N(C)[C@H](C(=O)N(C)C)CC(=O)N(C)[C@@H](CC)C(=O)N[C@@H]([C@@H](C)CC)C(=O)N(C)CC(=O)N(C)[C@H]3C/C=C\CCN(C3=O)[C@@H](Cc3ccc(C)cc3)C(=O)N(C)CC(=O)N[C@@H](CCc3ccc(C(F)(F)F)c(Cl)c3)C(=O)N2C1 [PP2154] | 0.36 |

From here, focus on the item given below.
## Input Looking for the measured Kd of CC[C@H](C)[C@@H]1NC(=O)[C@H](C2CC2)N(C)C(=O)C[C@@H](C(=O)N(C)CC)N(C)C(=O)[C@H](C2CCCC2)N(C)C(=O)C2(CCC2)NC(=O)[C@@H]2C[C@H](C)CN2C(=O)[C@H](CCc2cc(F)c(C(F)(F)F)c(F)c2)NC(=O)CN(C)C(=O)[C@H](Cc2ccc(C(F)(F)F)cc2)N2CC/C=C\C[C@@H](C2=O)N(C)C(=O)CN(C)C1=O [PP2080] , can you help?
## Output 0.093

====

Molecular target: GDP-bound KRAS wild-type protein (Homo sapiens, UniProt P01116)
Assay: Binding to KRAS by surface plasmon resonance (SPR), Single Cycle Kinetics
Details: SPR, Single Cycle Kinetics, 1:1 binding model; GDP-bound KRAS wild-type protein; read-out: KRAS KD
The label is True for Kd below 0.3 nM and False for Kd equal to or exceeding 0.3 nM.

Below are worked cases with known answers.
| COMPOUND STRUCTURE | CATEGORY |
| --- | --- |
| CCO[C@@H]1C[C@H]2C(=O)NC3(CCC3)C(=O)N(C)[C@@H](C3CCCC3)C(=O)N(C)[C@H](C(=O)N3CCOCC3)CC(=O)N(C)[C@@H](CC(C)C)C(=O)N[C@@H]([C@@H](C)CC)C(=O)N(C)CC(=O)N(C)[C@H]3C/C=C\CCN(C3=O)[C@@H](Cc3ccc(C)cc3)C(=O)N(C)CC(=O)N[C@@H](CCc3cc(F)c(C(F)(F)F)c(F)c3)C(=O)N2C1 | True |
| CCO[C@@H]1C[C@H]2C(=O)NC3(CCC3)C(=O)N(C)[C@@H](C(CC)CC)C(=O)N(C)[C@H](C(=O)N(C)C)CC(=O)N(C)[C@@H](CC(C)C)C(=O)N[C@@H]([C@@H](C)CC)C(=O)N(C)CC(=O)N(C)[C@H]3C/C=C\CCN(C3=O)[C@@H](Cc3ccc(C(F)(F)F)cc3)C(=O)N(C)CC(=O)N[C@@H](CCc3ccc4sccc4c3)C(=O)N2C1 | False |
| CCO[C@@H]1C[C@H]2C(=O)NC3(CCC3)C(=O)N(C)[C@@H](C3CCCC3)C(=O)N(C)[C@H](C(=O)N(C)C)CC(=O)N(C)[C@@H](CC(C)C)C(=O)N[C@@H]([C@@H](C)CC)C(=O)N(C)CC(=O)N(C)[C@H]3C/C=C\CCN(C3=O)[C@@H](Cc3ccc(F)cc3C)C(=O)N(C)CC(=O)N[C@@H](CCc3cc(F)c(C(F)(F)F)c(F)c3)C(=O)N2C1 | True |

## Input Hello, is Kd of the following molecule strictly smaller than 0.3 nM? CCO[C@@H]1C[C@H]2C(=O)NC3(CCC3)C(=O)N(C)[C@@H](C3CCCC3)C(=O)N(C)[C@H](C(=O)N(C)C)CC(=O)N(C)[C@@H](CC3CCCC3)C(=O)N[C@@H]([C@@H](C)CC)C(=O)N(C)CC(=O)N(C)[C@H]3C/C=C\CCN(C3=O)[C@@H](Cc3ccc(C)cc3)C(=O)N(C)CC(=O)N[C@@H](CCc3cc(F)c(Cl)c(F)c3)C(=O)N2C1
## Output False

## Input Hello, is Kd of the following molecule strictly smaller than 0.3 nM? CCCOC[C@H]1C(=O)N[C@@H]([C@@H](C)CC)C(=O)N(C)CC(=O)N(C)[C@H]2C/C=C\CCN(C2=O)[C@@H](Cc2ccc(C)cc2)C(=O)N(C)CC(=O)N[C@@H](CCc2cc(F)c(C(F)(F)F)c(F)c2)C(=O)N2C[C@H](OCC)C[C@H]2C(=O)NC2(CCCC2)C(=O)N(C)[C@@H](C2CCCC2)C(=O)N(C)[C@H](C(=O)N2CCCC2)CC(=O)N1C
## Output True

====

Molecular target: GDP-bound KRAS wild-type protein (Homo sapiens)
Assay: Binding to KRAS by surface plasmon resonance (SPR), Single Cycle Kinetics
Conditions: SPR Single Cycle Kinetics, GDP-bound KRAS wild-type protein, 1:1 binding model; read-out: KRAS KD
Where a SMILES comes first, the peptide text is derived from it. Bridges are numbered along the chain shown (N, C = ends). [ ]: non-standard residue; d: D form. hPhe(3-Cl-4-CF3) = N[C@@H](CCc1ccc(C(F)(F)F)c(Cl)c1)C(=O)O; NPrPhe(4-CF3) = CCCN[C@@H](Cc1ccc(C(F)(F)F)cc1)C(=O)O; NMeGly(cPent) = CN[C@H](C(=O)O)C1CCCC1; Pro(4,4-F2) = O=C(O)[C@@H]1CC(F)(F)CN1; NMeL = CN[C@@H](CC(C)C)C(=O)O; Ac4c = NC1(C(=O)O)CCC1; NEtG = CCNCC(=O)O; Sar = CNCC(=O)O
PROPERTY MEASURED: pKd
Scale explanation: pKd corresponds to minus log10 of a concentration expressed in moles per litre.

## Input Looking for the measured pKd of CCCN1C(=O)CN(C)C(=O)CN(CC)C(=O)[C@H]([C@@H](C)CC)NC(=O)[C@H](CC(C)C)N(C)C(=O)C[C@@H](C(=O)N(C)C)NC(=O)[C@H](C2CCCC2)N(C)C(=O)C2(CCC2)NC(=O)[C@@H]2CC(F)(F)CN2C(=O)[C@H](CCc2ccc(C(F)(F)F)c(Cl)c2)NC(=O)CN(C)C(=O)[C@@H]1Cc1ccc(C(F)(F)F)cc1 [PP0370] ([NMeL]I[NEtG][Sar][NPrPhe(4-CF3)][Sar][hPhe(3-Cl-4-CF3)][Pro(4,4-F2)][Ac4c][NMeGly(cPent)]D-NMe2; lactam N-11) , can you help?
## Output 8.82

====

Test system: human lung cancer strain NCI-H441;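 also: cell proliferation inhibition after four days measured by CellTiter-Glo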
Assay: cells
Details: NCI-H441, 96 h, read-out: NCI-H441 IC50 (nM), NCI-H441 cell proliferation, 4 days, CellTiter-Glo
PROPERTY MEASURED: IC50 (nM)
Response body: numeric value in nM, unit text excluded.

Here is how some molecules turned out for IC50.
| COMPOUND STRUCTURE | IC50, nM |
| --- | --- |
| C#CC[C@H]1C(=O)N[C@@H]([C@@H](C)CC)C(=O)N(C)CC(=O)N(C)[C@H]2C/C=C\CCN(C2=O)[C@@H](Cc2ccc(C(F)(F)F)cc2)C(=O)N(C)CC(=O)N[C@@H](CCc2cc(F)c(C(F)(F)F)c(F)c2)C(=O)N2C[C@H](F)C[C@H]2C(=O)NC2(CC(C)(C)C2)C(=O)N(C)[C@@H](C2CCCC2)C(=O)N(C)[C@H](C(=O)N(C)CC)CC(=O)N1C | 3.1 |
| CCCN1C(=O)C[C@@H](C(=O)N(C)C)N(C)C(=O)[C@H](C2CCCC2)N(C)C(=O)C2(CCC2)NC(=O)[C@@H]2C[C@@H](OCC)CN2C(=O)[C@H](CCc2cc(F)c(C(F)(F)F)c(F)c2)NC(=O)CN(C)C(=O)[C@H](Cc2ccc(C(F)(F)F)cc2)N2CC/C=C\C[C@@H](C2=O)N(C)C(=O)CN(C)C(=O)[C@H]([C@@H](C)CC)NC(=O)[C@@H]1CC(C)C | 8 |
| CCO[C@@H]1C[C@H]2C(=O)NC3(CC(F)(F)C3)C(=O)N(C)[C@@H](C3CCCC3)C(=O)N3CCC[C@@H]3CC(=O)N(C)[C@@H](CC3CC3)C(=O)N[C@@H]([C@@H](C)CC)C(=O)N(C)CC(=O)N(C)[C@H]3C/C=C\CCN(C3=O)[C@@H](Cc3ccc(C(F)(F)F)cc3)C(=O)N(C)CC(=O)N[C@@H](CCc3cc(F)c(C(F)(F)F)c(F)c3)C(=O)N2C1 | 20.9 |
| CCCC[C@H]1C(=O)N[C@@H]([C@@H](C)CC)C(=O)N(C)CC(=O)N(C)[C@H]2C/C=C\CCN(C2=O)[C@@H](Cc2ccc(C(F)(F)F)cc2)C(=O)N(C)CC(=O)N[C@@H](CCc2cc(F)c(C(F)(F)F)c(F)c2)C(=O)N2C[C@H](F)C[C@H]2C(=O)NC2(CC(C)(C)C2)C(=O)N(C)[C@@H](C2CCCC2)C(=O)N(C)[C@H](C(=O)N(C)C)CC(=O)N1C | 1.1 |

## Input Looking for the measured IC50 of CCO[C@@H]1C[C@H]2C(=O)NC3(CC(C)(C)C3)C(=O)N(C)[C@@H](C3CCCC3)C(=O)N(C)[C@H](C(=O)N(C)C)CC(=O)N(C)[C@@H](COC)C(=O)N[C@@H]([C@@H](C)CC)C(=O)N(C)CC(=O)N(C)[C@H]3C/C=C\CCN(C3=O)[C@@H](Cc3ccc(C(F)(F)F)cc3)C(=O)N(C)CC(=O)N[C@@H](CCc3ccc(C(F)(F)F)c(Cl)c3)C(=O)N2C1 , can you help?
## Output 5.9

## Input Looking for the measured IC50 of CCCN(C)C(=O)[C@@H]1CC(=O)N(C)[C@@H](CC(F)F)C(=O)N[C@@H]([C@@H](C)CC)C(=O)N(C)CC(=O)N(C)[C@H]2C/C=C\CCN(C2=O)[C@@H](Cc2ccc(C(F)(F)F)cc2)C(=O)N(C)CC(=O)N[C@@H](CCc2cc(F)c(C(F)(F)F)c(F)c2)C(=O)N2CCC[C@H]2C(=O)NC2(CC(C)(C)C2)C(=O)N(C)[C@@H](C2CCCC2)C(=O)N1C , can you help?
## Output 10

Origin of measurements: patent US20240158446A1
